Just for reference, ChEMBL document CHEMBL1201862 is where these values come from.

- Tested on: HOP-18
- experimentSummary: NCI tumour cell line growth inhibition, 48 h
Activity calls are given as the source filed them. Rule as the data show it: active = GI50 up to about 1.1 µM and inactive = higher.
// allowed return values: active, inactive

C/C(=N\NC(=O)CC(=O)Nc1ccc(C)cc1)c1cc2ccccc2oc1=O
inactive

Request: Short answer needed: outcome of this test for `O=C(NO)c1ccc(O)c(O)c1` ?
Result: inactive

Request: Short answer needed: outcome of this test for `O=P1(c2ccccc2)CCCCC1` ?
Result: inactive

Request: Short answer needed: outcome of this test for `CC1c2c(Cl)nc3ccccc3c2Oc2c1c(Cl)nc1ccccc21` ?
Result: inactive

Request: Short answer needed: outcome of this test for O=C(COc1ccc(Br)cc1Br)N1N=C(c2ccc([N+](=O)[O-])o2)CC1(O)c1ccccc1 (stereo not given) ?
Result: inactive

Request: Short answer needed: outcome of this test for `COc1ccc(CNc2cnc3ccc(N)cc3n2)cc1OC` ?
Result: active

Request: Short answer needed: outcome of this test for `O=C1/C(=C/c2ccc3c(c2)OCCO3)CCC/C1=C\c1ccc2c(c1)OCCO2` ?
Result: inactive

Request: Short answer needed: outcome of this test for `O=C(O)C1=C(C(=O)O)Oc2ccccc2O1` ?
Result: inactive

Request: Short answer needed: outcome of this test for `O=C(CCN1CCCCC1)Nc1ccc2c(c1)C(=O)c1ccc(NC(=O)CCN3CCCCC3)cc1C2=O` ?
Result: inactive

Request: Short answer needed: outcome of this test for `CC1=C(/C=C/C(C)=C/C=C/C(C)=C/C=C/C=C(C)/C=C/C=C(C)/C=C/C=C(C)/C=C/C=C(\C)C(=O)O)C(C)(C)CCC1` ?
Result: active

* * *

Each item that follows carries a reported GI50.
- System: A549
- experimentSummary: NCI tumour cell line growth inhibition, 48 h
Counter-ions that a name gives are not always drawn. Activity calls are given as the source filed them. Cut-off read from the data, not from the text of the source: active = GI50 up to about 1.1 µM and inactive = higher.

Solved cases (2 shown):
CC(=O)O[C@H]1CC[C@@]2(C)C(=CC[C@H]3[C@@H]4C/C(=C\c5ccc(N(C)C)cc5)[C@H](OC(C)=O)[C@@]4(C)CC[C@@H]32)C1
5.92 µM (inactive)
O=c1c2cc(Br)cc(Br)c2nc(CCCl)n1-c1ccc(O)c([N+](=O)[O-])c1
15.5 µM (inactive)

Request: GET /values?readout=GI50&system=A549&item= `CC1(C)C2=CCCC(=O)[C@@]2(C)CC[C@@H]1O`
Result: > 100 µM (inactive)

Request: GET /values?readout=GI50&system=A549&item= `COc1ccccc1NC(=S)N/N=C1\C(=O)Nc2ccccc21`
Result: > 100 µM (inactive)

Request: GET /values?readout=GI50&system=A549&item= `O=C(CN1CCCC1)Nc1ccc2sc3ccccc3c(=O)c2n1`
Result: 16.6 µM (inactive)

Request: GET /values?readout=GI50&system=A549&item= C/C=C(\C)c1cc(=O)c2c(C)cc3c(c2o1)C(=O)c1c(O)c(C2CC(C)(N(C)C)C(OC(C)=O)C(C)O2)cc(C2CC(N(C)C)C(O)C(C)O2)c1C3=O (centres undefined)
Result: 0.41 µM (active)

Request: GET /values?readout=GI50&system=A549&item= NC(=O)C1=C(O)C[C@@H]2CC3Cc4cccc(O)c4C(=O)C3=C(O)[C@]2(O)C1=O (some centres undefined)
Result: 0.592 µM (active)

Request: GET /values?readout=GI50&system=A549&item= C=CCC(N(C)C(=O)[C@H](Cc1ccccc1)NC(=O)OCc1ccccc1)P(=O)(Oc1ccccc1)Oc1ccccc1 (some centres undefined)
Result: 5.81 µM (inactive)

Request: GET /values?readout=GI50&system=A549&item= COC1OCC(O)C(NC(=O)N(C)N=O)C1O (centres undefined)
Result: > 100 µM (inactive)

Request: GET /values?readout=GI50&system=A549&item= Oc1ccc(C(O)C2CCCCN2)cc1O (centres undefined) [RIMITEROL HYDROBROMIDE]
Result: > 100 µM (inactive)

Request: GET /values?readout=GI50&system=A549&item= `CC1(C)N[PH]2(Nc3ccccc3O2)OC1=O`
Result: 32.7 µM (inactive)

Request: GET /values?readout=GI50&system=A549&item= `CC(=O)C(=N\Nc1ccc(Cl)cc1)/C(C)=N/c1ccc(C)cc1`
Result: 29.3 µM (inactive)

Request: GET /values?readout=GI50&system=A549&item= CCCCN1C(=O)NC(Cc2ccccc2)C1=O (centres undefined)
Result: > 100 µM (inactive)

Request: GET /values?readout=GI50&system=A549&item= `CC(=O)N1CCN(CCCCN2c3ccccc3Sc3cc(N=[N+]=[N-])ccc32)CC1`
Result: 16.1 µM (inactive)
